The origin of these recorded values is patent US20130165464A1.

pIC50: −log10 of the molar value.
As an illustration, consider measured pIC50 for molecules on VPS34 (Homo sapiens, UniProt Q8NEB9).
Sequence (Q8NEB9 whole entry): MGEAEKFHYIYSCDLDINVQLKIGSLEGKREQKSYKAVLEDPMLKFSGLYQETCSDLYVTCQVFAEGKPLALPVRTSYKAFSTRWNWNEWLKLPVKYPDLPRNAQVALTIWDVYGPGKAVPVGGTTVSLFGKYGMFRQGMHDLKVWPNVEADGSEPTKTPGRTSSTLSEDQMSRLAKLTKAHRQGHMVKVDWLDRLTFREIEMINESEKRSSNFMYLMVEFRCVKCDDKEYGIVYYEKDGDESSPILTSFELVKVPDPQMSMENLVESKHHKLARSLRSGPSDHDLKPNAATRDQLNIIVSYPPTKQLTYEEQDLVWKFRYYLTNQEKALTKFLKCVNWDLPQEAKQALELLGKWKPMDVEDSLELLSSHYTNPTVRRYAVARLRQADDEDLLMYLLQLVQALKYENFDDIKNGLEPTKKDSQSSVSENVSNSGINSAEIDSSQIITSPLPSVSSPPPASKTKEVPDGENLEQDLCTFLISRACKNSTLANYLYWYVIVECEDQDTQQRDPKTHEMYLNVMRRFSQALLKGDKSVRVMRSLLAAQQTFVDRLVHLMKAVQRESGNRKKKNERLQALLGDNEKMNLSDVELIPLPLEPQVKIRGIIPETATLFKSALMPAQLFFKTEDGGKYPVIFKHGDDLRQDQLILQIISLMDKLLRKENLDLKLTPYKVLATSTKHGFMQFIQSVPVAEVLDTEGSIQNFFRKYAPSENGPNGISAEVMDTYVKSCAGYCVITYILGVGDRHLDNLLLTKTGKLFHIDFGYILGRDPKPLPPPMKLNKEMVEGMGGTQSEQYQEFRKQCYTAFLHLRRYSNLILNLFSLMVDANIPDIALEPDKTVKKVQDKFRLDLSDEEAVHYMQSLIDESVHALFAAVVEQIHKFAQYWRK

| smilesStr | pIC50 |
| --- | --- |
| Cc1cnc(NC(=O)OC2CCCCC2)cc1-n1cc(C(N)=O)c(-c2ccccc2Cl)c1 | 6.00 to 6.82 |
| CC(=O)Nc1cc(-n2cc(C(N)=O)c(-c3ccccc3Cl)c2)ccn1 | > 7.30 |
| COC(=O)Nc1cc(-n2cc(-c3ncc[nH]3)c(-c3ccccc3Cl)n2)c(C)cn1 | > 7.30 |
| CC(=O)Nc1cc(-n2cc(-c3ccccc3Cl)c(-c3nnc[nH]3)n2)ccn1 | 6.00 to 6.82 |
| CC(=O)Nc1cc(-n2cc(C(N)=O)c(-c3ccccc3Cl)n2)c(C)cn1 | 6.00 to 6.82 |
| O=C(Nc1cc(-n2cc(-c3nc[nH]n3)c(-c3ccccc3Cl)n2)c(F)cn1)C1CC1 | > 7.30 |
| CC(=O)Nc1cc(-n2cc(C(=O)O)c(-c3ccccc3Cl)n2)c(C)cn1 | 6.00 to 6.82 |
| Cc1cnc(NC(=O)C2CC2)cc1-n1cc(CO)c(-c2ccccc2Cl)n1 | 6.00 to 6.82 |
| CC(=O)Nc1cc(-n2cc(-c3nc[nH]n3)c(-c3ccccc3Cl)n2)ccn1 | > 7.30 |
| Cc1cnc(N)cc1-n1cc(C(N)=O)c(-c2cc(CN3CCCC3)ccc2Cl)c1 | 5.30 to 6.00 |

----------
- targetEntity: VPS34 (Homo sapiens, UniProt Q8NEB9)
- Construct: GST (N); host or cells: SF9 insect cells (baculovirus)
- experimentSummary: Human VPS34 enzyme assay (Adapta TR-FRET)
- Type: biochemical
- protocolConditions: 1 h; at a 1.11 μM concentration; read-out: VPS34 Percent Inhibition
Consider the following compounds and their measured inhibition at 1.11 µM readings.
measuredQuantity: inhibition at 1.11 µM

| smilesStr | measuredQuantity | result |
| --- | --- | --- |
| CC(=O)Nc1cc(-n2cc(-c3nc[nH]n3)c(-c3ccccc3Cl)n2)c(Br)cn1 | inhibition at 1.11 µM | 89% |
| Cc1cnc(NC(=O)C2CC2)cc1-n1cc(C(N)=O)c(-c2cc(CN3CCCC3)ccc2Cl)c1 | inhibition at 1.11 µM | > 99% |
| COC(=O)Nc1cc(-n2cc(-c3ncc[nH]3)c(-c3ccccc3Cl)c2)c(C)cn1 | inhibition at 1.11 µM | 97% |
| Cc1cnc(NC(=O)C2CC2)cc1-n1cc(CO)c(-c2ccccc2Cl)n1 | inhibition at 1.11 µM | 62% |
| CC(=O)Nc1cc(-n2cc(-c3nc[nH]n3)c(-c3cc(CN(C)C)ccc3Cl)n2)c(C)cn1 | inhibition at 1.11 µM | > 99% |
| COC(=O)Nc1cc(-n2cc(-c3nc[nH]n3)c(-c3cc(CN4CCCC4)ccc3Cl)n2)c(C)cn1 | inhibition at 1.11 µM | > 99% |
| CC(=O)Nc1cc(-n2cc(-c3nc[nH]n3)c(-c3ccc(F)cc3Cl)n2)c(C)cn1 | inhibition at 1.11 µM | > 99% |
| CC(=O)Nc1cc(-n2cc(CO)c(-c3ccccc3Cl)c2)c(C)cn1 | inhibition at 1.11 µM | 93% |
| COC(=O)Nc1cc(-n2cc(C(N)=O)c(-c3cc(CN4CCCC4)ccc3Cl)c2)c(C)cn1 | inhibition at 1.11 µM | > 99% |
| CC(=O)Nc1cc(-n2cc(-c3ncc[nH]3)c(-c3ccccc3Cl)n2)ccn1 | inhibition at 1.11 µM | > 99% |
| CCOc1ccc(-c2nn(-c3cc(NC(C)=O)ncc3C)cc2-c2nc[nH]n2)c(Cl)c1 | inhibition at 1.11 µM | > 99% |
| COC(=O)Nc1cc(-n2cc(C(N)=O)c(-c3ccccc3Cl)c2)c(C)cn1 | inhibition at 1.11 µM | > 99% |
| CC(=O)Nc1cc(-n2cc(C(N)=O)c(-c3cc(CN(C)C)ccc3Cl)c2)c(C)cn1 | inhibition at 1.11 µM | 20% |
| Cc1cnc(NC(=O)OC2CCCCC2)cc1-n1cc(-c2nc[nH]n2)c(-c2ccccc2Cl)c1 | inhibition at 1.11 µM | > 99% |
| CC(=O)Nc1cc(-n2cc(-c3nnc[nH]3)c(-c3ccc(Cl)cc3Cl)n2)c(C)cn1 | inhibition at 1.11 µM | > 99% |
| CC(=O)Nc1cc(-n2cc(-c3ncc[nH]3)c(-c3ccccc3Cl)n2)c(C)cn1 | inhibition at 1.11 µM | > 99% |
